# credit: the supplement of paper PMC13380429

Could you please report measured inhibition of SARS-CoV-2 cytopathic effect for the items listed next?
# System: Vero E6 infected with SARS-CoV-2
# protocol_summary: inhibition of SARS-CoV-2 cytopathic effect; higher = more antiviral protection, active = above 15
# assay_context: 10000 nM; 48 h
All answers are understood in %, so give the number only.

Given the entry NC[C@H]1O[C@H](O[C@H]2[C@H](O)[C@@H](O[C@H]3O[C@H](CO)[C@@H](O)[C@H](N)[C@H]3O)[C@H](N)C[C@@H]2N)[C@H](O)[C@@H](O)[C@@H]1O , report its measured inhibition of SARS-CoV-2 cytopathic effect.
-0.06

Given the entry O=C(Nc1ccc(F)cc1)N1CCc2ccccc2[C@@H]1c1ccc(C(F)(F)F)cc1 , report its measured inhibition of SARS-CoV-2 cytopathic effect.
-1.53

Given the entry CN1[C@@H]2CC[C@H]1C[C@@H](OC(c1ccccc1)c1ccccc1)C2 [benztropine-mesylate] , report its measured inhibition of SARS-CoV-2 cytopathic effect.
-7.74

Given the entry CCOC(=O)C1=C(C)NC(=S)NC1c1cccc(O)c1 (stereo not drawn) , report its measured inhibition of SARS-CoV-2 cytopathic effect.
-1.39

Given the entry CC(=O)Oc1ccccc1C(=O)Oc1ccccc1C(=O)O , report its measured inhibition of SARS-CoV-2 cytopathic effect.
1.17

Given the entry OCc1ccc(CO)o1 , report its measured inhibition of SARS-CoV-2 cytopathic effect.
0.97

Given the entry CCN1C(=O)CNc2ncc(-c3ccc(-c4nc[nH]n4)nc3C)nc21 , report its measured inhibition of SARS-CoV-2 cytopathic effect.
-4.67

Given the entry Cn1c(CNc2ccc(C(=N)N)cc2)nc2cc(C(=O)N(CCC(=O)O)c3ccccn3)ccc21 , report its measured inhibition of SARS-CoV-2 cytopathic effect.
3.34
